experiment: Saturation solubility at different pH; assay type: physicochemical; settings: pH 7.4, aqueous buffer

Compound structure string	solubility / µM
COc1cc(/C=C/C(=O)/C=C(O)/C=C/c2ccc(OC3=CC(=O)c4ccccc4C3=O)c(OC)c2)ccc1OC1=CC(=O)c2ccccc2C1=O	11.2

----------
assay: Saturation solubility at different pH; format: physicochemical; settings: pH 6.8, aqueous buffer
Measure name: solubility (µM)

Compound structure string	Measured value
COc1cc(/C=C/C(=O)/C=C(O)/C=C/c2ccc(OC3=CC(=O)c4ccccc4C3=O)c(OC)c2)ccc1OC1=CC(=O)c2ccccc2C1=O	20.7

----------
assay: Cell viability / cytotoxicity by high content imaging, healthy fibroblast control; format: cell-based; settings: mouse, NIH:3T3 fibroblast cells; NIH:3T3, 100 µM
Measure name: viability at 24 h, 100 µM (%)

Compound	Measured value
COc1cc(/C=C/C(=O)/C=C(O)/C=C/c2ccc(OC3=CC(=O)c4ccccc4C3=O)c(OC)c2)ccc1OC1=CC(=O)c2ccccc2C1=O [CurNQ]	44
